assay: Pharmacokinetic study in cynomolgus monkeys after oral (nasogastric) gavage, sublingual and intravenous administration; type: in vivo; details: cynomolgus monkey, plasma, intravenous, 2 mg/kg, Plasma Bumetanide Dibenzylamide concentration, monkey, dose column 2 mg/kg (title 30 mg/kg), Third Formulation (Form 4), 1.00 h, individual animals
quantity.measured: concentration at 1 h
For clarity, give the value followed by its unit.

Lookup: Can you look up the measured concentration at 1 h of CCCCNc1cc(C(=O)N(Cc2ccccc2)Cc2ccccc2)cc(S(N)(=O)=O)c1Oc1ccccc1 [Bumetanide Dibenzylamide] for me?
Found: 538 ng/mL

---

test: Pharmacokinetic study in cynomolgus monkeys after oral (nasogastric) gavage, sublingual and intravenous administration; format: in vivo; settings: both sexes, cynomolgus monkey, plasma, oral, 30 mg/kg, Plasma Bumetanide Dibenzylamide concentration, Median, monkey, NG 30 mg/kg, Second Formulation (Form 3), 8.00 h, N=4
quantity.measured: concentration at 8 h (ng/mL)
Enter your answer as a number in ng/mL; do not include the unit.

Lookup: Can you look up the measured concentration at 8 h of CCCCNc1cc(C(=O)N(Cc2ccccc2)Cc2ccccc2)cc(S(N)(=O)=O)c1Oc1ccccc1 [Bumetanide Dibenzylamide] for me?
Found: 566
